system: K4 kissing-loop RNA reporter; test: apparent KD of K4 kissing-loop reporter; higher = weaker reporter binding; conditions: Eterna round: R107; input ligand: tryptophan 2.4 mM;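 note: bound reporter read as fluorescence of individual clusters on recovered sequencing chips by microscopy, with normalized cluster intensities fitted with a binding model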
Would you mind telling me the reported apparent KD of K4 kissing-loop reporter of each entry?
Express your answer in nM, writing the number without its unit.

Report measured apparent KD of K4 kissing-loop reporter; entry is UGUCAUUGGUCUGAUACCAGUUAGCGCGAUAAGCGCAAAACUGGAGUGAUGUUCCCAAAUAACCCUUGGCAGCAGACCGAUGACU [MAT - Same State Theophlline B - Mod of Eli - D13] 176

Report measured apparent KD of K4 kissing-loop reporter; entry is AAAAUAAUCCAGUGAUGUUGGUAACCAGAUACCAGCGACGAAAGUCGCCCUUGGCAGCUGUGGACGUACAAAAUAAGUACGUCCU 312

Report measured apparent KD of K4 kissing-loop reporter; entry is UGAUACCAGACUGAUACCAGCCAGUGAUGUUGGCAAUAACCAAGGCGAGUCAAAGACUCGGGCCCUUGGCAGCAGUCUGGUAUCU [TheoBX 6 #SwitchBubble #StaticStem] 136

Report measured apparent KD of K4 kissing-loop reporter; entry is AAAGUAUACUGAAGGAGCGAGUAGUGGAAACAUAAACUCAUUGCGAGUGAUGUUCGCAGUACUCAGGUAGGUCGCGGUAAUCGUA [Exclusion Arginine B Gf 12] 558

Report measured apparent KD of K4 kissing-loop reporter; entry is GGAGGAGAAUAUGAUACCAGCAGAGAGAGAGAGGAAGUAUAGUGAUGUUAUAUGAGAGAAUGCCCUUGGCAGCAUAAGACGCAGG [#07 K4 Theophylline B Same State] 94.7

Report measured apparent KD of K4 kissing-loop reporter; entry is GUCUGCUGUAUCGAUACCAGAAGUGGGCAGUGAUGUUGUUCGGGUACAUCGCGUCUCGAGUUCCCUUGGCAGCGAUUGUACGAAU [theeternabot_exclusion_KL_Theo_B_12] 524

====

test system: MS2 coat protein; assay: apparent KD of MS2 coat protein, switch OFF state (with FMN for OFF switches, without FMN for ON switches); designed switch direction (-1 OFF switch, 1 ON switch): 1; higher = weaker reporter binding; conditions: FMN input: 0 or 200 uM; Eterna round: R93 (includes R88 designs)
Would you mind telling me the reported apparent KD of MS2 coat protein of each entry?
Express your answer in nM, writing the number without its unit.

Report measured apparent KD of MS2 coat protein; entry is AAUUGACAUGAGGAUCACCCAUGUAGGAUUAUGGGAGGAUAUACAAAGACGAGAGUCAGAGUAGAAGGCCUAGGAA [salish99-ss1-146] 82.1

Report measured apparent KD of MS2 coat protein; entry is AAGAAAGUUUACGAGGAUAUGUUCCGCAUAACAUGAGGAUCACCCAUGUGAACAAGAAAGGCGACGCAGAAGGCGUGAGCAAAGA [Atanansori] 403

Report measured apparent KD of MS2 coat protein; entry is AUAACAACGUAUGAGGAUAUCCUUAAUAAAACAUGAGGAUCACCCAUGUGAAUAAAAUAACAAUUGGAGAAGGCAUACGUACAAU [SS 2 M 52] 20.8

====

tested on: MS2 coat protein; experiment: apparent KD of MS2 coat protein; designed switch direction (-1 OFF switch, 1 ON switch): 1; higher = weaker reporter binding; settings: input ligand: FMN 200 uM
Would you mind telling me the reported apparent KD of MS2 coat protein of each entry?
Express your answer in nM, writing the number without its unit.

Report measured apparent KD of MS2 coat protein; entry is AGAUCAUGACGAGGAUAUGGUACAUGAGGAUCACCCAUGUAUGUACCACGACGGAAACGUCGAAUCCAGAAGGCGUCAUGAUCA [Mat - Same State NG 2 - JL mod - D24] (Eterna round: R96, puzzle: Same State NG 2) 30.5

Report measured apparent KD of MS2 coat protein; entry is UUACUCAUGUAAGGAUAUGCAGCCGUUUCGGCUGCAGAAGGUACUAUAAUACAUGAGGAUCACCCAUGUCUAUAAAAUAAAGAC [Mat - Same State NG 1 - JL mod - D81] (Eterna round: R96, puzzle: Same State NG 1) 69.5

Report measured apparent KD of MS2 coat protein; entry is GAGUAGUUGAAAGGAUAUAGAUUAUUGUAGGAUCUAGAAGGUUCUAACAUGAGGAUCACCCAUGUAGGACUAUUCCUGUGUAUC [Parity 88 - Jieux - Same State NG 1] (Eterna round: R96, puzzle: Same State NG 1) 9.56
